molecular target: T1, huCDH19(44-141)::muCDH19(140-770) with Flag tag (construct B, Hu EC1) (human/mouse chimera); assay: flow cytometry, transfected 293T cells
T1 construct: leader left out; the entry starts at residue 44; also called C137897

Binder | binding result
hu anti-<huCDH19> 4A9 (1-468)(F55I,A56G) VH::huIgG1z + 4A9 (1-239)(F47L) VL::huLLC-C1 (Ab ID 14057) (antibody, V domains shown, Engineered variant of 4A9; the entries already carry the changes; Bin 1) VH: QVQLQESGPGLVKPSETLSLTCTVSGGSISGYYWSWIRQPPGKGLEWIGYFSYSGSTNYNPSLKSRVTLSVDTSKNQFSLKLSSVTAADTAVYYCARNWAFHFDFWGQGTLVTVSS VL: QSVLTQPPSVSGAPGQRVTISCTGSSSNIGTGYAVHWYQQLPGTAPKLLIYGNNNRPSGVPDRFSGSKSGTSASLAITGLQAEDEADYYCQSYDSRLSGWVFGGGTKLTVLG | binds
hu anti-<huCDH19> 4A9 (Ab ID 13589) (antibody, human IgG1, lambda, V domains shown, huIgG1z / huLLC-C1; Bin 1) VH: QVQLQESGPGLVKPSETLSLTCTVSGGSISGYYWSWIRQPPGKGLEWFAYFSYSGSTNYNPSLKSRVTLSVDTSKNQFSLKLSSVTAADTAVYYCARNWAFHFDFWGQGTLVTVSS VL: QSVLTQPPSVSGAPGQRVTISCTGSSSNIGTGYAVHWYQQFPGTAPKLLIYGNNNRPSGVPDRFSGSKSGTSASLAITGLQAEDEADYYCQSYDSRLSGWVFGGGTKLTVLG | binds
hu anti-<huCDH19> 2G6 (1-477)(R17G) VH::huIgG1z + 23A10.3 (1-231)(C42S) VL::huLLC-C2 (Ab ID 14304) (antibody, V domains shown, light chain is that of 23A10.3 (C42S); Bin 4) VH: QVQLVESGGGVVQPGGSLRLSCAASGFTFSSYGMHWVRQAPGKGLEWVAFIWYDGSNKYYADSVKDRFTISRDNSKNTLYLQMKSLRAEDTAVYYCARRAGIIGTIGYYYGMDVWGQGTTVTVSS VL: SYELTQPPSVSVSPGQTASITCSGDRLGEKYVSWYQQKPGQSPILVIYQDNKWPSGIPERFSGSNSGNTATLTISGTQAMDEADYYCQAWDSSTVVFGGGTKLTVLG | binds
